test system: P. aeruginosa PA7 (DSM 24068); assay: microbe, parasite or virus in culture; assay type: cell-based, Pseudomonas aeruginosa; conditions: n = 3, MHB, 22 h
just bin them by MIC P. aeruginosa (value in brackets): bucket 1: < 10 µg/mL; bucket 2: ≥ 10 µg/mL and < 20 µg/mL; bucket 3: ≥ 20 µg/mL

CC(C)n1[c](=[Ag][Br])n(Cc2ccccn2)c2ccccc21 bucket 3

Entry `CCn1[c](=[Ag][I])n(Cc2ccccn2)c2ccccc21` belongs to which category?
bucket 3

// next record `[Cl][Ag][c]1n(Cc2ccccn2)c2ccccc2[n+]1Cc1ccccn1`
bucket 3

// next record `Cn1[c](=[Ag][I])n(Cc2ccccn2)c2ccccc21`
bucket 1

// next record `CC(C)n1[c](=[Ag][I])n(Cc2ccccn2)c2ccccc21`
bucket 1

// next record `[Cl][Ag][c]1n(Cc2ccccc2)c2ccccc2[n+]1Cc1ccccn1`
bucket 2

// next record `CC(C)n1[c](=[Ag][Cl])n(Cc2ccccn2)c2ccccc21`
bucket 3

// next record `COCCn1[c]([Ag][Cl])[n+](Cc2ccccn2)c2ccccc21`
bucket 2

---

assay: Conductometry: molar conductivity of silver complexes in DMSO; assay type: physicochemical; settings: 1.0 mM in DMSO, 24 h after dissolution, calculated as monocarbene (NHC)AgX
measured property: Molar conductivity ΛM (S cm^2 mol^–^1)
Report the figure in S cm^2 mol^–^1 without appending any unit label.

molecule	measured property	experimental result
COCCn1[c](=[Ag][Br])n(Cc2ccccn2)c2ccccc21 [4b]	Molar conductivity ΛM	5.08
CCn1[c](=[Ag][Br])n(Cc2ccccn2)c2ccccc21 [2b]	Molar conductivity ΛM	5.07
CC(C)n1[c](=[Ag][Cl])n(Cc2ccccn2)c2ccccc21 [3a]	Molar conductivity ΛM	2.91
[Cl][Ag][c]1n(Cc2ccccc2)c2ccccc2[n+]1Cc1ccccn1 [5a]	Molar conductivity ΛM	3.70
COCCn1[c](=[Ag][I])n(Cc2ccccn2)c2ccccc21 [4c]	Molar conductivity ΛM	8.83

Record request: Molar conductivity ΛM value, item CC(C)n1[c](=[Ag][I])n(Cc2ccccn2)c2ccccc21 [3c]
7.62

// next record COCCn1[c]([Ag][Cl])[n+](Cc2ccccn2)c2ccccc21 [4a]
3.01

// next record CC(C)n1[c](=[Ag][Br])n(Cc2ccccn2)c2ccccc21 [3b]
4.71

// next record Cn1[c](=[Ag][I])n(Cc2ccccn2)c2ccccc21 [1c]
8.13

// next record [Cl][Ag][c]1n(Cc2ccccn2)c2ccccc2[n+]1Cc1ccccn1 [6a]
4.15

// next record Cn1[c]([Ag][Cl])[n+](Cc2ccccn2)c2ccccc21 [1a]
3.05

// next record CCn1[c](=[Ag][Cl])n(Cc2ccccn2)c2ccccc21 [2a]
3.03

---

system: P. aeruginosa (PA 14) biofilm; assay: Inhibition of biofilm formation, crystal violet staining; assay type: cell-based, Pseudomonas aeruginosa; conditions: ± SD, n = 4, at the respective smallest active concentration, 24 h
Quick reference for biofilm inhibition among some compounds
Report the figure in % without appending any unit label.

Worked cases, biofilm inhibition given:
COCCn1[c]([Ag][Cl])[n+](Cc2ccccn2)c2ccccc21 71
CC(C)n1[c](=[Ag][Cl])n(Cc2ccccn2)c2ccccc21 71

Shifting focus to the compound that follows.
Record request: biofilm inhibition value, item `COCCn1[c](=[Ag][Br])n(Cc2ccccn2)c2ccccc21`
70

Entry source: paper PMC11091889
